SYSTEM UNDER TEST: T1, hAMY3R (human, UniProt P30988)
T1 sequence 1: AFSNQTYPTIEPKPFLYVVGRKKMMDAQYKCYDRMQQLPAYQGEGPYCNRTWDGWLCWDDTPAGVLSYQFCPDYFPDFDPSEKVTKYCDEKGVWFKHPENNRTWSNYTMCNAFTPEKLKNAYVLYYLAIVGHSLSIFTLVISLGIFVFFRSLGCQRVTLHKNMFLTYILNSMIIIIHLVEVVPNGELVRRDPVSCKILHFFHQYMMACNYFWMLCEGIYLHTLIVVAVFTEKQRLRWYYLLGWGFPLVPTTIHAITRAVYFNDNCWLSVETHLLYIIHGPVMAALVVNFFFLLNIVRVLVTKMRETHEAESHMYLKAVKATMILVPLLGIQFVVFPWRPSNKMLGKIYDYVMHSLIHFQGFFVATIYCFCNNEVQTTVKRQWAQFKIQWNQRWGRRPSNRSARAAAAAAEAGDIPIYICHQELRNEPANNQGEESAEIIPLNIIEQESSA
T1 sequence 2: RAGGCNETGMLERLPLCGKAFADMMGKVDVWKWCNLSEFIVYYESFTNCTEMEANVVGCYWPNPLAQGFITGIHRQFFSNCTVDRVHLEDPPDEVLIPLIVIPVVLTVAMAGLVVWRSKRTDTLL
MEASUREMENT PROTOCOL: cell-based or functional assay
Numbered stars: 1 amine (or outer) side, 2 acyl side, 3 side chain; on linkers, the order of the positions; unused ones are H or OH. Bridge positions count the residues as written; N and C are the ends. Square brackets hold non-standard residues; d marks the D form. Ends that are not written are not given here. * marks the point of attachment. C20 diacid = O=C(O)CCCCCCCCCCCCCCCCCCC(=O)*; γGlu = O=C(O)[C@H](CCC(=O)[*:2])N[*:1]; Hyp = O=C(O)[C@@H]1C[C@@H](O)CN1; Cit = NC(=O)NCCC[C@H](N)C(=O)O
METRIC NAME: hAMY3R EC50 (cAMP)

binder="KCNTATCTVQ[Cit]LAAQIYQFTDKDKDNVAPPTNVGSNG[Hyp]-NH2 (disulfide 2-7 (inferred); ends not checked) [SEQ ID NO: 243]" metric_name="hAMY3R EC50 (cAMP)" result="0.018 nM"
binder="GCRFGTCTVQ[Cit]LAHQIYQFTDKDKDNVAPRSNISPQG[Hyp]-NH2 (disulfide 2-7 (inferred); ends not checked) [SEQ ID NO: 300]" metric_name="hAMY3R EC50 (cAMP)" result="0.076 nM"
binder="KCNTATCTVQ[Cit]LAHQIYQFTDKDKDNVAPPTNVGSNG[Hyp]-NH2 (disulfide 2-7 (inferred); ends not checked) [SEQ ID NO: 268]" metric_name="hAMY3R EC50 (cAMP)" result="0.014 nM"
binder="{C20 diacid-γGlu}-KCNTATCTVQRLAHQIAQFTDKDKDPVAPPTNVGSNS[Hyp]-NH2 (disulfide 2-7 (inferred); ends not checked) [SEQ ID NO: 120]" metric_name="hAMY3R EC50 (cAMP)" result="0.025 nM"
